Across several publications, the following IC50 results were reported for ULK1 (Homo sapiens).

Sample answers from the record:
{"input smiles": "CC(C)CN1CC(n2cc(Nc3ncc(Cl)c(NCCCN4CCCC4=O)n3)cn2)C1", "IC50": "> 500 nM"}
{"input smiles": "CNC(=O)c1ccccc1Oc1nc(Nc2ccc(C)c(Br)c2)ncc1C(F)(F)F", "IC50": "> 2000 nM"}
{"input smiles": "O=C1CCc2cc(Nc3ncc(Br)c(NC4CC4)n3)ccc2N1", "IC50": "< 200 nM"}
{"input smiles": "CNC(=O)c1c(O)cccc1Oc1nc(Nc2cc(OC)c(OC)c(OC)c2)ncc1Br", "IC50": "< 200 nM"}

// switching to the query molecule
Send back ULK1 (Homo sapiens) IC50 of CCc1cc(N2CCN(C)CC2)ccc1Nc1ncc(C(F)(F)F)c(NCCCN2CCCC2=O)n1 only.
25 to 100 nM

---

Across several publications, the following IC50 results were reported for UniProt O75385.

Sample answers from the record:
{"input smiles": "Cc1cc(N2CCN(C)CC2)ncc1Nc1cc(NCCCNC(=O)C2CCC2)c(C(F)(F)F)cn1", "target or test system": "UniProt O75385", "readout": "IC50", "observed": "100 to 500 nM"}
{"input smiles": "CNC(=O)c1ccccc1Nc1ccnc(Nc2cc(OC)c(OC)c(OC)c2)n1", "target or test system": "UniProt O75385", "readout": "IC50", "observed": "< 200 nM"}
{"input smiles": "CCC(CC)NC(=O)c1cc(-c2cnn3cc(N4CCN(C(=O)OC(C)(C)C)CC4)cnc23)cs1", "target or test system": "UniProt O75385", "readout": "IC50", "observed": "1 to 49 nM"}
{"input smiles": "CNC(=O)c1ccccc1COc1nc(Nc2cc(OC)c(OC)c(OC)c2)ncc1Br", "target or test system": "UniProt O75385", "readout": "IC50", "observed": "> 2000 nM"}
{"input smiles": "N[C@@H]1CCCC[C@@H]1NC(=O)c1cc(-c2cnn3cc(N4CCNCC4)cnc23)cs1", "target or test system": "UniProt O75385", "readout": "IC50", "observed": "1 to 49 nM"}
{"input smiles": "CC(=O)NNc1nc(Nc2ccc3c(c2)CCC(=O)N3)ncc1C(F)(F)F", "target or test system": "UniProt O75385", "readout": "IC50", "observed": "> 2000 nM"}

Send back UniProt O75385 IC50 of CCc1nn(C2CCN(CC)CC2)cc1Nc1ncc(Cl)c(NCCCN2CCCCC2=O)n1 only.
100 to 500 nM

Send back UniProt O75385 IC50 of COc1ccc(C)c(Nc2ncc(C(F)(F)F)c(NCc3cccc(S(C)(=O)=O)c3)n2)c1 only.
> 2000 nM

Send back UniProt O75385 IC50 of CN(c1nc(Nc2ccc3c(c2)CCC(=O)N3)ncc1C(F)(F)F)C1CC1 only.
< 200 nM

---

pIC50: −log10 of the molar value.
Across several publications, the following pIC50 results were reported for UniProt O75385.

Sample answers from the record:
{"input smiles": "[2H]C([2H])([2H])N1CCC(n2cc(Nc3ncc(C(F)(F)F)c(NCCCNC(=O)C4CCC4)n3)c(C)n2)CC1", "pIC50": "7.60 to 9.00"}
{"input smiles": "CNC(=O)CCOc1nc(Nc2cc(OC)c(OC)c(OC)c2)ncc1Br", "pIC50": "> 6.70"}
{"input smiles": "CNC(=O)c1ccccc1Oc1nc(Nc2cc(OC)ccc2C)ncc1Br", "pIC50": "< 5.70"}
{"input smiles": "COc1cc(Nc2ncc(Br)c(Oc3ccccc3-c3nc(C)co3)n2)cc(OC)c1OC", "pIC50": "< 5.70"}
{"input smiles": "C[C@@H](CCNc1nc(Nc2cnn(C3CCN(C)CC3)c2)ncc1Cl)N1CCCC1=O", "pIC50": "< 6.30"}
{"input smiles": "Cc1nn(C2CCN(C3CCCC3)CC2)cc1Nc1ncc(C(F)(F)F)c(NCCCN2CCCCCC2=O)n1", "pIC50": "7.60 to 9.00"}
{"input smiles": "Cc1cc(C2CCN(C)CC2)ccc1Nc1ncc(Cl)c(NCCCN(C)C(=O)C2CCC2)n1", "pIC50": "6.30 to 7.00"}
{"input smiles": "Nc1nc(Nc2cnc3[nH]ccc3c2)ncc1C(F)(F)F", "pIC50": "< 5.70"}

Send back UniProt O75385 pIC50 of O=C1CCc2cc(Nc3ncc(C(F)(F)F)c(C#Cc4ccccc4)n3)ccc2N1 only.
< 5.70

Send back UniProt O75385 pIC50 of Cc1nn(C2CCNCC2)cc1Nc1ncc(C(F)(F)F)c(NCCCN2CCCC2=O)n1 only.
7.00 to 7.60

Send back UniProt O75385 pIC50 of CCc1cc(N2CCN(C)CC2)ccc1Nc1ncc(C(F)(F)F)c(NCCCN2CCCOCC2=O)n1 only.
7.60 to 9.00

Send back UniProt O75385 pIC50 of NC(=O)c1cccc(Nc2ncc(C(F)(F)F)c(Nc3ccc4c(c3)OCO4)n2)c1 only.
> 6.70
